Target: Spike protein of authentic SARS-CoV-2 (Munich isolate 984) (SARS-CoV-2, UniProt P0DTC2 14-1273)
Experiment: cell-based or functional assay
Examples of binders with documented IC50 Neutralizing Assay follow.

binder	IC50 Neutralizing Assay
HL CV07-222 (antibody, V domains shown) VH: QVQLVQSGAEVKKPGASVKVSCKASGYTFTDYYVHWVRQAPGQGLEWMGWINPISGGTNYAQKFQGRVTMTRDTSISTAYMELSRLRSDDTAVYYCARGPYYYDSSGSLGAFDIWGQGTMVTVSS VL: QSALTQPASVSGSPGQSITISCTGTSSDVGSYNLVSWYQQHPGKAPKLMIYEGSKRPSGVSNRFSGSKSGNTASLTISGLQAEDEAHYYCCSYAGGSTSYVFGTGTKVTVLG	< 0.05 µg/mL
HL CV07-315 (antibody, V domains shown) VH: EVQLVESGGGLVQPGRSLRLSCAASGFTFDDYAMHWVRQAPGKGLEWVSGISWNSGSIGYADSVKGRFTISRDNAKNSLYLQMNSLRAEDTALYYCAKDFLWDLHPPRYYGMDVWGQGTTVTVSS VL: QSVLTRPPSVSAAPGQKVTISCSGSSSNIGNNYVSWYQQLPGTAPKLLIYENNKRPSGIPDRFSGSKSGTSATLGITGLQTGDEADYYCGTWDSSLNGVFGGGTKLTVLG	~0.05 µg/mL
HL CV07-262 (antibody, V domains shown) VH: QVQLVQSGAEVKKPGASVKVSCKASGYTFTGYYMHWVRQAPGQGLEWMGWINPNSGGTNYAQTFQGRVTMTRDTSITTTYMELSRLRSDDTAVYYCARVGWYDFGTPGDYYYYYGMDVWGQGTTVTVSS VL: QSALTQPASVSGSPGQSITISCTGTSSDVGSYNLVSWYQQHPGKAPKLMIYEGSKRPSGVSNRFSGSKSGNTASLTISGLQAEDEADYFCCSYAGTSTFVFGTGTKVTVLG	< 0.05 µg/mL
HL CV07-283 (antibody, V domains shown) VH: QVQLVQSGAEVKKPGASAKVSCKASGYTFTGYYIHWVRQAPGQGLEWMGLINPISGGTNYAQKFQDRVTMTRDTSISTAYMELSRLRSDDTAVYYCVRGPFYYDSSGPLGGMDVWGQGTTVTVSS VL: QSALTQPASVSGSPGQSITISCTGTSGDVGGYNYVSWYQQHPGKAPKLMIYEVSNRPSGVSNRFSGSKSGNTASLTISGLQAEDEADYYCSSYTSSSTYVFGTGTKVTVLG	~0.05 µg/mL
